Entries and their GI50
- Tested on: HCT-116
- assay.summary: NCI tumour cell line growth inhibition, 48 h
The source made the active and inactive calls. Cut-off read from the data, not from the text of the source: active = GI50 up to about 1.1 µM and inactive = higher.
outcome.measure: GI50

compound: COc1cc2cc(C(=O)N3CC(CCl)c4ccc([N+](=O)[O-])cc43)[nH]c2c(OC)c1OC (centres undefined)
measurement: > 100 µM (inactive)

compound: O=C(O)c1cc(S(=O)(=O)N/N=C\c2c3ccccc3[n+]([O-])c3ccccc23)ccc1O
measurement: 7.55 µM (inactive)

compound: O=C1N[C@@H]2O[C@H](CNC(=O)c3cc(Br)c[nH]3)C[C@]2(O)N1.O=C1N[C@H]2O[C@H](CNC(=O)c3cc(Br)c[nH]3)C[C@@]2(O)N1
measurement: > 100 µM (inactive)

compound: Cc1[nH]c2ncn(/N=C/c3ccccc3)c(=N)c2c1Cc1ccccc1
measurement: 87.3 µM (inactive)

* * *

- System: BT-549
- assay.summary: NCI tumour cell line growth inhibition, 48 h
Activity calls are given as the source filed them. No stated cut-off is given here; in the data, active = GI50 up to about 1.1 µM and inactive = higher.
outcome.measure: GI50

compound: CC(C)(C)[Si](C)(C)Oc1ccc(C2CNC(=O)C23CCC(=O)N3Cc2ccccc2)cc1 (stereo not given)
measurement: 15.5 µM (inactive)
--
compound: COc1ccccc1/C=N/Nc1nnc2c3ccccc3c3ncccc3c2n1
measurement: 41.7 µM (inactive)
--
compound: C/C(=N\Nc1nc2ccccc2s1)c1cccc[n+]1[O-]
measurement: > 100 µM (inactive)
--
compound: CC[C@@]1(C[C@H]2C[C@@]3(C(=O)OC)c4[nH]c5ccccc5c4CCN3C2=O)COC2(CCCCC2)O1
measurement: 47.9 µM (inactive)
--
compound: Cc1ccc(N(C)S(=O)(=O)c2ccccc2[N+](=O)[O-])cc1
measurement: 23.3 µM (inactive)

* * *

- System: RXF 393
- assay.summary: NCI tumour cell line growth inhibition, 48 h
The source made the active and inactive calls. Cut-off read from the data, not from the text of the source: active = GI50 up to about 1.1 µM and inactive = higher.
The compounds listed here are annotated with their GI50.
outcome.measure: GI50

compound: O=C(CCl)Nc1ccc(-c2nc3ccccc3s2)cc1
measurement: 3.43 µM (inactive)
--
compound: O=C1CCC(c2nc3ccccc3o2)C(=O)N1 (stereo not given)
measurement: > 100 µM (inactive)
--
compound: c1ccc2c(c1)cc1ccc3cccc4ccc2c1c34
measurement: > 100 µM (inactive)
--
compound: Oc1c(CN2CCCC2)ccc2cccnc12
measurement: > 67.9 µM (inactive)
--
compound: O=C(O)CCSC(CC1(c2ccc(Cl)cc2)NC(=O)CCS1)c1ccccc1 (stereo not given)
measurement: 21.7 µM (inactive)
--
compound: C/C(=N\NS(=O)(=O)c1ccc(C)cc1)C(CN1CCCCC1)C(c1ccccc1)c1c(O)c2ccccc2oc1=O (stereo not given)
measurement: 39.6 µM (inactive)
--
compound: O=C(Nc1ccccc1)N1C(c2ccccc2)=N[C@@H](c2ccccc2)[C@@H]1c1ccccc1
measurement: 15.2 µM (inactive)
--
compound: COc1cc2c(cc1OC)C1Cc3cc(OC)c(OC)cc3C(C2)O1
measurement: > 100 µM (inactive)
--
compound: CN1C2CCC1CN(CCOC(c1ccc(F)cc1)c1ccc(F)cc1)C2
measurement: 16.5 µM (inactive)
--
compound: O=c1[nH]nc(Cc2ccccc2)n1/N=C/c1ccncc1
measurement: > 100 µM (inactive)
--
compound: CCOC(=O)c1nnc2c(C#N)c(-c3ccccc3)c(C)n2c1N
measurement: 98.4 µM (inactive)
--
compound: CC(C)[C@H]1NC(=O)[C@H]2N=C(O[C@@H]2C)[C@@H]2CCCN2C(=O)[C@H](Cc2ccccc2)NC(=O)[C@@H]2COC(=N2)[C@@H](Cc2ccccc2)NC(=O)[C@@H]2COC1=N2
measurement: > 100 µM (inactive)
--
compound: CC(NNC(=O)c1ccncc1)c1ccc(F)cc1 (stereo not given)
measurement: > 100 µM (inactive)
--
compound: O=C(O)CCSc1ncnc2[nH]cnc12
measurement: > 100 µM (inactive)
--
compound: CCCCCCCCCCn1cccc1/C=C/c1ccc(/C=C/c2cccn2CCCCCCCCCC)cc1
measurement: > 100 µM (inactive)
--
compound: CC(=O)O/C=C1/C[C@H]2[C@@H]3CCC4CC(C(C)=O)CC[C@]4(C)[C@H]3CC[C@]2(C)C1=O (stereo not given in full)
measurement: > 100 µM (inactive)
--
compound: CS(=O)(=O)Sc1ccc(Cl)cc1
measurement: 7.89 µM (inactive)
--
compound: Oc1ccc2ccccc2c1CN(Cc1c(O)ccc2ccccc12)C1CCCCC1
measurement: 18.2 µM (inactive)
--
compound: Clc1ccc(C2=NN=C3C(c4ccccc4)=Nc4ccccc4N3C2)cc1
measurement: 1.48 µM (inactive)
--
compound: COc1ccc2c(O)c(Oc3ccc(Cl)cc3)c(=O)oc2c1
measurement: 35.3 µM (inactive)

* * *

Reported GI50 is given for each of the following compounds.
- Tested on: OVCAR-8
- assay.summary: NCI tumour cell line growth inhibition, 48 h
Active and inactive are the calls of the source. Rule as the data show it: active = GI50 up to about 1.1 µM and inactive = higher.

compound: CC1CCCC2=C1C(c1ccc(Cl)cc1)n1c(s/c(=C\c3ccc(Cl)cc3)c1=O)=N2 (stereo not given)
GI50: > 100 µM (inactive)

compound: O=C(Cn1nnc(-c2ccccc2)n1)N/N=C/c1cn(Cc2ccc(Cl)cc2Cl)c2ccccc12
GI50: > 100 µM (inactive)

compound: Cc1cc(C)c(NC(=O)/C=C/c2ccccc2)c(C)c1
GI50: > 100 µM (inactive)

compound: O=C(O)CC(NC(=O)CP(=O)(O)O)C(=O)O (stereo not given)
GI50: 149 µM (inactive)

compound: CCC1=CC(OCc2ccccc2)C(CCN(Cc2ccccc2)C(=O)OCc2ccccc2)C1 (stereo not given)
GI50: 17.5 µM (inactive)

* * *

- Test system: K562
- assay.summary: NCI tumour cell line growth inhibition, 48 h
Calls of active or inactive are those of the source. No stated cut-off is given here; in the data, active = GI50 up to about 1.1 µM and inactive = higher.
Outcomes: true = active, false = inactive

compound: O=C(O)CCNCCCCNCCC(=O)O
target.or.test.system: K562
category.label: false

compound: O=C1[C@H]2ON(c3ccccc3)C(c3cccc([N+](=O)[O-])c3)[C@H]2C(=O)N1c1ccc(Cc2ccc(N3C(=O)[C@@H]4ON(c5ccccc5)C(c5cccc([N+](=O)[O-])c5)[C@@H]4C3=O)cc2)cc1 (some centres undefined)
target.or.test.system: K562
category.label: false

compound: C[C@]12C[C@H](c3ccccc3)Nc3ccccc3N1C(c1ccccc1)=NO2
target.or.test.system: K562
category.label: false

compound: c1ccc(C2=Nc3cccc4cccc(c34)N2)cc1
target.or.test.system: K562
category.label: false

compound: COC(=O)C1=C(C(=O)OC)C2(CCCCCC2=O)OC1=O (centres undefined)
target.or.test.system: K562
category.label: false

compound: Cc1cc(C)nc(NS(=O)(=O)c2ccc(Nc3c4ccccc4nc4c(C(=O)Nc5ccc(S(=O)(=O)Nc6cc(C)on6)cc5)ccc(Cl)c34)cc2)n1
target.or.test.system: K562
category.label: false

compound: C/C(=N\O)c1cccc[n+]1Cc1ccccc1
target.or.test.system: K562
category.label: false

compound: CC1(CC(=O)O)OC2CCCCCC2O1.NCc1ccccc1 (centres undefined)
target.or.test.system: K562
category.label: false

compound: C1=C2C3=[N+](CCCCC3)CC2Cc2ccsc21 (centres undefined)
target.or.test.system: K562
category.label: false

compound: CN1CCN(c2cc3nc4cc(O)cc(O)c4c(O)c3cc2N)CC1
target.or.test.system: K562
category.label: false

compound: CCOC(=O)C(Cc1ccccc1)NC(=O)c1nc[nH]c1/N=N/N(C)C (centres undefined)
target.or.test.system: K562
category.label: false

compound: CCOC(=O)CCNC(=O)c1cc(C)cc2c1Oc1c(cc(C)cc1C(=O)NCCC(=O)OCC)S2
target.or.test.system: K562
category.label: false

compound: CCOP(=O)(OCC)C(C(=O)OC)C(=O)C(=O)Nc1ccc(Cl)cc1Cl (centres undefined)
target.or.test.system: K562
category.label: false

compound: Cn1nc(-c2ccccc2)c2c(-c3ccccc3)c3cc(Cl)ccc3nc21
target.or.test.system: K562
category.label: false

compound: CCCCCCCCCCCc1c(O)c(=O)c2c(oc3c(=O)c(CCCCCCCCCCC)c(O)c(=O)c3n2-c2ccc(N(C)C)cc2)c1=O
target.or.test.system: K562
category.label: false

compound: CC(=O)O[C@H]1CC[C@@]2(C)C(=CC[C@@H]3[C@@H]2CC[C@]2(C)c4c(cc(C#N)c(=N)n4C(C)=O)C[C@@H]32)C1
target.or.test.system: K562
category.label: false

compound: CC[n+]1c(/C=C/c2ccc(N(CCCl)CCCl)cc2)ccc2cc(I)ccc21
target.or.test.system: K562
category.label: true

compound: Cc1nc2c(=S)[nH]ncc2[nH]1
target.or.test.system: K562
category.label: false

compound: N#Cc1nc(C#N)c(NC(=O)c2ccccc2C(=O)O)[nH]1
target.or.test.system: K562
category.label: false

Measured values drawn from ChEMBL document CHEMBL1201862 for this set.
